Listing of entries alongside the reported recovery.
Assay: Recovery (mass balance) of flavonoids during Caco-2 transport assay
Assay type: in vitro ADME
Conditions: human, Caco-2, mass balance, transport apical to basolateral, both sides of insert plus cells; read-out: Recovery (A to B, %)

Compound | recovery (%)
C[C@@H]1O[C@@H](O[C@H]2[C@H](Oc3cc(O)c4c(c3)O[C@H](c3ccc(O)cc3)CC4=O)O[C@H](CO)[C@@H](O)[C@@H]2O)[C@H](O)[C@H](O)[C@H]1O [Compound 20, Naringin] | 93.2
O=c1c(-c2ccc(O)cc2)coc2c([C@@H]3O[C@H](CO)[C@@H](O)[C@H](O)[C@H]3O)c(O)ccc12 [Compound 24, Puerarin] | 87.4
O=c1cc(-c2ccc(O)cc2)oc2c([C@@H]3OC[C@H](O)[C@H](O)[C@H]3O)c(O)c([C@@H]3O[C@H](CO)[C@@H](O)[C@H](O)[C@H]3O)c(O)c12 [Compound 8, Schaftoside] | 72.3
COc1ccc(CCC(=O)c2c(O)cc(O[C@@H]3O[C@H](CO)[C@@H](O)[C@H](O)[C@H]3O[C@@H]3O[C@@H](C)[C@H](O)[C@@H](O)[C@H]3O)cc2O)cc1O [Compound 30, Neohesperidin dihydrochalcone] | 78.7
C[C@@H]1O[C@@H](OC[C@H]2O[C@@H](Oc3c(-c4ccc(O)c(O)c4)oc4cc(O)cc(O)c4c3=O)[C@H](O)[C@@H](O)[C@@H]2O)[C@H](O)[C@H](O)[C@H]1O [Compound 17, Rutin] | 98.2
C[C@@H]1O[C@@H](Oc2c(-c3ccc(O)c(O)c3)oc3cc(O)cc(O)c3c2=O)[C@H](O)[C@H](O)[C@H]1O [Compound 16, Quercitrin] | 90.7
O=c1c(O)c(-c2ccc(O)cc2O)oc2cc(O)cc(O)c12 [Compound 11, Morin] | 81.5
